# Tgt: Glutathione peroxidase 1 (Homo sapiens) (UniProt P07203)
# Sequence (P07203 whole entry, looked up): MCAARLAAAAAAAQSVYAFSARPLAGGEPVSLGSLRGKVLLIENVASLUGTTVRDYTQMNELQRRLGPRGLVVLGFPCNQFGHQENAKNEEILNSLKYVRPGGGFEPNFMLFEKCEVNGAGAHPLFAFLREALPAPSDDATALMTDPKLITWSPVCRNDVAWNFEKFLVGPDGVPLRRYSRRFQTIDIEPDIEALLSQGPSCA
# Measurement notes: Primary qHTS Assay for Inhibitors of Recombinant Selenoprotein Glutathione Peroxidase 1 (GPX1) (AID 1845191); also: nearly all actives have a fitted effect of over 65% in size
# Condition parameters: recombinant GPX1, GR-coupled NADPH fluorescence, 15 min; series mostly up to 48.8 µM
Records with an inconclusive call do not appear. Activity calls are given as the source filed them. Calls follow the shape of the dose curve; as a rule, active = well fitted inhibition curve with a large enough effect; inconclusive = small, poorly fitted or top-dose-only effect; inactive = flat fitted curve, though single readings scatter.
Respond with a class label; see active, inactive

These recorded examples may help you get a feel for the data.
Ask | What outcome does the record of this test show for O=C(O)C1CCc2cc(C3CCCCC3)c(Cl)cc21 (stereo unspecified) ?
Reply | inactive

Ask | What outcome does the record of this test show for CCCCCCCCCCCCC[N+](C)(C)Cc1ccccc1 ?
Reply | inactive

Ask | What outcome does the record of this test show for COc1ccc2c(O[C@H]3CC4C(=O)N(C)CCCC/C=C\[C@@H]5C[C@@]5(C(=O)NS(=O)(=O)C5CC5)NC(=O)[C@@H]4C3)cc(-c3nc(C(C)C)cs3)nc2c1C (stereo partly specified) ?
Reply | inactive

Ask | What outcome does the record of this test show for C=CCN1CC[C@]23c4c5ccc(O)c4O[C@H]2[C@@H](OCCOCCOCCOCCOCCOCCOCCOC)CC[C@@]3(O)[C@H]1C5 ?
Reply | inactive

Ask | What outcome does the record of this test show for Cn1cc(C2=C(c3cn(CCCN)c4ccccc34)C(=O)NC2=O)c2ccccc21 ?
Reply | inactive

Ask | What outcome does the record of this test show for Cc1oc(=O)oc1COC(=O)N1CC[C@@H](N2CC/C(=C\C3=C(C(=O)O)N4C(=O)[C@@H](NC(=O)/C(=N/O)c5nsc(N)n5)[C@H]4SC3)C2=O)C1 ?
Reply | active

Ask | What outcome does the record of this test show for Cc1ccc(Nc2ncc(C(=O)N3CCN(c4ccc(F)cc4)CC3)c3ccccc23)cc1Cl ?
Reply | inactive

Ask | What outcome does the record of this test show for C=CC[N@@+]12CC[C@]34c5ccccc5N5/C=C6\C7N(/C=C(\C53)[C@@H](C[C@@H]41)/C(=C/CO)C2)c1ccccc1[C@@]71CC[N@@+]2(CC=C)C/C(=C\CO)[C@@H]6C[C@@H]12 (stereo partly specified) ?
Reply | inactive

Ask | What outcome does the record of this test show for CCN(C(=O)CO)[C@H]1CN(C(=Nc2cccc(OC(F)F)c2)NC#N)N=C1c1ccc(Cl)c(Cl)c1 ?
Reply | inactive

Ask | What outcome does the record of this test show for COC(=O)N[C@H](C(=O)N1CCC[C@H]1C(=O)Nc1ccc([C@@H]2CC[C@@H](c3ccc(NC(=O)[C@@H]4CCCN4C(=O)[C@@H](NC(=O)OC)C(C)C)cc3)N2c2ccc(C(C)(C)C)cc2)cc1)C(C)C ?
Reply | inactive

Further cases:
Ask | What outcome does the record of this test show for CCOC(=O)[C@H](C)C[C@@H](Cc1ccc(-c2ccccc2)cc1)NC(=O)CCC(=O)O ?
Reply | inactive

Ask | What outcome does the record of this test show for Cc1ccc2nc(-c3ccc(Cl)c(NC(=O)c4ccc5c(c4)OCCO5)c3)oc2c1 ?
Reply | inactive

###

# System: SC27B
# Measurement notes: qHTS profiling for inhibitors of Plasmodium falciparum proliferation (AID 504749); also: nearly all actives have a fitted effect of over 60% in size
# Condition parameters: P. falciparum in erythrocytes, SYBR Green DNA, 72 h; series mostly up to 28.7 µM
Results filed as inconclusive are left out. The source made the active and inactive calls. Calls follow the shape of the dose curve; as a rule, active = well fitted inhibition curve with a large enough effect; inconclusive = small, poorly fitted or top-dose-only effect; inactive = flat fitted curve, though single readings scatter.
Respond with a class label; see active, inactive

These recorded examples may help you get a feel for the data.
Ask | What outcome does the record of this test show for CC(C)CN(C[C@@H](OP(=O)(O)O)[C@H](Cc1ccccc1)NC(=O)O[C@@H]1CCOC1)S(=O)(=O)c1ccc(N)cc1 ?
Reply | inactive

Ask | What outcome does the record of this test show for CN1CC[C@H](CN2c3ccccc3Sc3ccccc32)C1 ?
Reply | active

Ask | What outcome does the record of this test show for Cc1cc(CC(C)CC(C)(C)C)n(O)c(=O)c1 (stereo unspecified) ?
Reply | active

Further cases:
Ask | What outcome does the record of this test show for CCC(C)n1ncn(-c2ccc(N3CCN(c4ccc(OCC5COC(Cn6cncn6)(c6ccc(Cl)cc6Cl)O5)cc4)CC3)cc2)c1=O (stereo unspecified) ?
Reply | inactive

Ask | What outcome does the record of this test show for O=NCc1ccc([N+](=O)[O-])o1 ?
Reply | inactive

Ask | What outcome does the record of this test show for CC(=O)O[C@@]12CO[C@@H]1C[C@H](O)[C@@]1(C)C(=O)[C@H](O)C3=C(C)[C@@H](OC(=O)C(O)[C@@H](NC(=O)OC(C)(C)C)c4ccccc4)C[C@@](O)([C@@H](OC(=O)c4ccccc4)[C@H]21)C3(C)C (stereo partly specified) ?
Reply | active

Ask | What outcome does the record of this test show for S=C1NC=NC2N=CNC12 (stereo unspecified) ?
Reply | inactive

Ask | What outcome does the record of this test show for CC(=O)OC1CC2CCC1(C)C2(C)C (stereo unspecified) ?
Reply | inactive
